- TARGET OF ASSAY: Tyrosine-protein kinase ABL1 (Homo sapiens)
- Sequence (P00519 whole entry): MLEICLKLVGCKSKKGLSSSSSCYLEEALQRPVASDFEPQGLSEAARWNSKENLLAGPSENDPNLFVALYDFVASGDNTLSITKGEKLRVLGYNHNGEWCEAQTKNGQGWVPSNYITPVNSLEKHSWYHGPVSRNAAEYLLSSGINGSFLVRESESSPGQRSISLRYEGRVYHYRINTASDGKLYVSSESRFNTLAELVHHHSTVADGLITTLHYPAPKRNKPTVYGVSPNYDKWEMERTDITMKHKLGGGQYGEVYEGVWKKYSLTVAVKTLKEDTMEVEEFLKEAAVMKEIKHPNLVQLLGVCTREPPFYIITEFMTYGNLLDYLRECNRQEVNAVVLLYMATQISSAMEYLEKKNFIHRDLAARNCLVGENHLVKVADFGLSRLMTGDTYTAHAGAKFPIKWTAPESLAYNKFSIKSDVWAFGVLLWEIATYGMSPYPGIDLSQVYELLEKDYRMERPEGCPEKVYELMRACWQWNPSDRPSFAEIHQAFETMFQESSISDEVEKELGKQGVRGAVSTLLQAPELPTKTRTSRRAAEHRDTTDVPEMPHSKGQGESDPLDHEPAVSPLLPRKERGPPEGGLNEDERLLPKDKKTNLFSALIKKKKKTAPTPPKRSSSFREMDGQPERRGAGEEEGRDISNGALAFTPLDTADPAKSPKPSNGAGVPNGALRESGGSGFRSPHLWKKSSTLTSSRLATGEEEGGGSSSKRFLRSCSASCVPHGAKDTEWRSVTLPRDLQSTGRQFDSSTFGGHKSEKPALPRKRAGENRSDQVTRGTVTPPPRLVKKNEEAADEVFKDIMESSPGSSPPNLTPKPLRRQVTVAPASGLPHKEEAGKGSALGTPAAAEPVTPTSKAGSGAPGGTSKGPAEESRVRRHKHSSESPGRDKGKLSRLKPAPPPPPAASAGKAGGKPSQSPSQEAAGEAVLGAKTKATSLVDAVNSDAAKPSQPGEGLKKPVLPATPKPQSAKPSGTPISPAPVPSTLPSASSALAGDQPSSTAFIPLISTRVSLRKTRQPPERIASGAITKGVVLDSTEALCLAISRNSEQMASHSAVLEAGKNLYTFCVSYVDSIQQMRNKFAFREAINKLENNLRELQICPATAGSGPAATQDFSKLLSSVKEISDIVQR
- PROTOCOL SUMMARY: Inhibition of recombinant Abl kinase (unknown origin) expressed in Sf9 cells assessed as residual enzyme activity using GGEAIYAAPFKK as substrate at 10 uM in presence of [gamma33P]ATP
Activity: recorded values
Please state the figure in %; there is no need to write the unit.

Here's what some known entries look like.
MOLECULE	TARGET OF ASSAY	UNIT ABBREVIATION	OBSERVED VALUE
Cc1nn(C)c2nnc(Nc3ccc(S(=O)(=O)NC(CO)C(C)C)cc3)nc12 (configuration not stated)	Tyrosine-protein kinase ABL1 (Homo sapiens)	%	80
Cc1nn(C)c2nnc(Nc3ccc(S(=O)(=O)NCC(O)CO)cc3)nc12 (configuration not stated)	Tyrosine-protein kinase ABL1 (Homo sapiens)	%	81
Cc1nn(C)c2nnc(Nc3ccc(S(=O)(=O)N4CCOCC4)cc3)nc12	Tyrosine-protein kinase ABL1 (Homo sapiens)	%	88
Cc1nn(C)c2nnc(Nc3ccc(S(N)(=O)=O)cc3)nc12	Tyrosine-protein kinase ABL1 (Homo sapiens)	%	95

**Q:** I would be grateful if you could share the reported Activity for "Cc1nn(C)c2nnc(Nc3ccc(S(=O)(=O)N4CCCC4)cc3)nc12" .
**A:** 100

**Q:** I would be grateful if you could share the reported Activity for "Cc1nn(C)c2nnc(Nc3ccc(S(=O)(=O)N4CCCCC4)cc3)nc12" .
**A:** 100

**Q:** I would be grateful if you could share the reported Activity for "Cc1nn(C)c2nnc(Nc3ccc(S(=O)(=O)N4CCN(C)CC4)cc3)nc12" .
**A:** 60
